Data credit: patent US20260158064A1

Reported EC50 is given for each of the following binders.
target-or-system: T1, human ROR1-His protein (fused with a His protein tag, Acrobiosystems, RO1-H522y) (human, UniProt Q01973 30-403)
T1 construct: also called recombinant human ROR1-His protein; not shown: His tag
T1 sequence (Q01973 30-403 limits assumed): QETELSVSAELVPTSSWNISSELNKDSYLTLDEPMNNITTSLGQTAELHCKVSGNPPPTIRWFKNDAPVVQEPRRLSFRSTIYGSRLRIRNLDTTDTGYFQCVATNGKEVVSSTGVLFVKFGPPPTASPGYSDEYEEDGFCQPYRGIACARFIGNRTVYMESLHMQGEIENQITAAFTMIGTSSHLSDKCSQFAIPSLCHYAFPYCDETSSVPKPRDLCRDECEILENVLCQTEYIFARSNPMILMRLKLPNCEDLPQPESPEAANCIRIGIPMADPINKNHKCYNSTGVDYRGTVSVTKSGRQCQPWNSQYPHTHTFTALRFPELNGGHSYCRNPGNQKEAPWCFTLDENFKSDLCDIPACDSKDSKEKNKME
assay-summary: indirect ELISA, antigen coated at 1 ug/ml
Entry rule: numbers only, all in µg/mL.

// known answers, use as guide
single domain antibody AHP15662 (Fc fusion, VHH expressed from pcDNA3.4-Fc (HuIgG1); also called AHP15662-VHH; not shown: human IgG1 Fc of the pcDNA3.4-Fc (HuIgG1) expression vector) EVQLVESGGGLVQPGGTLRLSCAASGSISRFYAVGWYRQAPGKQRELVARISSGGSTYYADSVKGRFTISINNSKNTVYLQMNNLKPEDTAVYYCNARNLWGQGTQVTVSS
0.0105
single domain antibody AHP15485 (Fc fusion, Alpaca VHH expressed from pcDNA3.4-Fc (HuIgG1) in HEK293-6E; also called AHP15485-VHH; not shown: human IgG1 Fc of the pcDNA3.4-Fc (HuIgG1) expression vector) EVQLVESGGGLAQAGGSLSLSCTASGRSFSNFQMGWFRQAPGKEREFVAASGWSGGPTYYADSVKGRFTISTDDSKKTMYLQMNSLKPEDTAAYYCYEDRVLSGRPVRYWGRGTQVTVSS
0.0061
single domain antibody AHP15776 (Fc fusion, VHH expressed from pcDNA3.4-Fc (HuIgG1); not shown: human IgG1 Fc of the pcDNA3.4-Fc (HuIgG1) expression vector) QVQLVESGGGLVQPGGSLTLSCAASQSISSIYLLGWYRQAPGKERESVARITTSGTTTYIADSVKGRFTLSRDNAKNTMYLQMNSLKPEDTAVYYCNVPFLVATARGNAYWGQGTQVTVSS
0.0109

Looking for the measured EC50 of single domain antibody AHP15580 (Fc fusion, VHH expressed from pcDNA3.4-Fc (HuIgG1); not shown: human IgG1 Fc of the pcDNA3.4-Fc (HuIgG1) expression vector) QVQLVESGGGVVQPGGSLRLSCAASGFVLRVNTVSWYRQAPGKQRELVALITSESNEYYDDSVKGRFTISRDNAKNTIYLHMNSLKPEDTGVYFCNFITTWGQGTQVTVSS , can you help? 0.0407
